Record: compiled pKi on D(4) dopamine receptor (Homo sapiens) from multiple reports.
Sequence (P21917 whole entry): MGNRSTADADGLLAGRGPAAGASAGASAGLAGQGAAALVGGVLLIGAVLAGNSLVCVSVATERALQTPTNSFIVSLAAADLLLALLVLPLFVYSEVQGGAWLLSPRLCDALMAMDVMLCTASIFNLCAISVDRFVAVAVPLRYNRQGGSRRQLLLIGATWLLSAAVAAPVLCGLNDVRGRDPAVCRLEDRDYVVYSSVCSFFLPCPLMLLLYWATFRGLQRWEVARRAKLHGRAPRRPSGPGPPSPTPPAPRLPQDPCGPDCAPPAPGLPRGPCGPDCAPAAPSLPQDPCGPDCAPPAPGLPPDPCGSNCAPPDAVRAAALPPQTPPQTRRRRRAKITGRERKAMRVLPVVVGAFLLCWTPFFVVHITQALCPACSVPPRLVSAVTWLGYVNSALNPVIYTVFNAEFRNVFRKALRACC
// returns pKi (minus log10 of molar concentration), number only

Here is how some molecules turned out for pKi.
O=C1c2ccccc2S(=O)(=O)N1CCCCN1CCN(c2ccccc2)CC1    6.87
O=Cc1c(OCCCCN2CCN(c3cccc(Cl)c3Cl)CC2)nn2ccccc12    7.54
O=C(NCCC(F)CN1CCN(c2cccc(Cl)c2Cl)CC1)c1ccc(-c2ccccn2)cc1 (stereo not given)    5.51

QUERY: Quick check: pKi on D(4) dopamine receptor (Homo sapiens), item `COc1ccccc1N1CCN(Cc2cn(CCCCCCF)nn2)CC1` ?
RESULT: 7.70

QUERY: Quick check: pKi on D(4) dopamine receptor (Homo sapiens), item `O=C(NC1CCN(Cc2ccc([N+](=O)[O-])cc2)CC1)c1ccc2ccccc2c1` ?
RESULT: 6.74
